Target: T1, CRBN, Q96SW2;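 further: pooled lentiviral library of zinc finger degron-EGFP fusions in mCherry-positive Jurkat cells, FACS-sorted after compound exposure, with degron abundance counted by next-generation sequencing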
T1 chain: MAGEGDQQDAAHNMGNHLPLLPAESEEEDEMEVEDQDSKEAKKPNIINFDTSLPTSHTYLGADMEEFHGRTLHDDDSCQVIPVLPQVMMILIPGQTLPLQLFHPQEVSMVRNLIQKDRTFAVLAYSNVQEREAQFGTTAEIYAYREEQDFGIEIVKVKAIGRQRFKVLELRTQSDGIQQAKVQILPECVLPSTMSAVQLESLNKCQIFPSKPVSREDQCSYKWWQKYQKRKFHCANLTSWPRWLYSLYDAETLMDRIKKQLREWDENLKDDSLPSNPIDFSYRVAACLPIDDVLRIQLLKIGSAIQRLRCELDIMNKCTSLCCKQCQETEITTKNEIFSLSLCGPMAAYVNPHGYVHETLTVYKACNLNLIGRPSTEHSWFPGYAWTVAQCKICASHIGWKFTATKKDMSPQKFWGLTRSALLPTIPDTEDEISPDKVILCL
Assay: log2 fold change of degron read counts, EGFP-low vs EGFP+ sorted cells (limma voom), compound-induced degradation; higher = more compound-induced degradation of the degron-EGFP fusion; degrons are variants of IKZF1/3 zinc finger 2; compound dose not given here
Settings: Jurkat; 18 h; compound: compound 19 (5-tert-butyl-thalidomide)
Over roughly 8,300 sequences, “log2 fold change of degron read counts, EGFP-low vs EGFP+ sorted cells (limma voom), compound-induced degradation” has its median near -1.1; the highest 2% begin near 3.2. For the sample, the highest values were picked, then their nearest neighbours and some sequences at random.
Please enter true where log2 fold change of degron read counts is greater than or equal to -0.2, and false where it is lower.

Completed entries (count: 3):
Qu. Does the reported log2 fold change of degron read counts for FECNQCGRDFTQKGNLLRHIKL [46F_47E_49N_50Q_52G_53R_54D_55F_67L_, Q9UKT9] fall at or above the -0.2 mark?
Ans. false

Qu. Assess whether reported log2 fold change of degron read counts for FCCEICGACFTQKGNLLRHIKL [46F_47C_49E_50I_52G_53A_54C_55F_67L_, Q9UKT9] sits at -0.2 or higher.
Ans. true

Qu. API: above_or_equal(metric=log2 fold change of degron read counts, cutoff=-0.2) for item FFCEICGHNFTQKGNLLRHIKL [46F_47F_49E_50I_52G_53H_54N_55F_67L_, Q9UKT9]
Ans. false

New cases:
Qu. Test whether the sequence FRCPVCGAFFTQKGNLLRHIKL [46F_47R_49P_50V_52G_53A_54F_55F_67L_, Q9UKT9] records log2 fold change of degron read counts of -0.2 or higher.
Ans. false

Qu. Please tell me: is the sequence FFCDICGATFTQKGNLLRHIKL [46F_47F_49D_50I_52G_53A_54T_55F_67L_, Q9UKT9] at or over -0.2 in terms of log2 fold change of degron read counts?
Ans. true

Qu. Item FSCEICGARFTQKGNLLRHIKL [46F_47S_49E_50I_52G_53A_54R_55F_67L_, Q9UKT9] with log2 fold change of degron read counts of -0.2 or above?
Ans. true

Qu. Please check the record FWCEQCGAKFTQKGNLLRHIKL [46F_47W_49E_50Q_52G_53A_54K_55F_67L_, Q9UKT9] and state if its log2 fold change of degron read counts is at or above -0.2.
Ans. true
